target: N-formyl peptide receptor 2 (Homo sapiens) (UniProt P25090)
Sequence (P25090 whole entry, looked up): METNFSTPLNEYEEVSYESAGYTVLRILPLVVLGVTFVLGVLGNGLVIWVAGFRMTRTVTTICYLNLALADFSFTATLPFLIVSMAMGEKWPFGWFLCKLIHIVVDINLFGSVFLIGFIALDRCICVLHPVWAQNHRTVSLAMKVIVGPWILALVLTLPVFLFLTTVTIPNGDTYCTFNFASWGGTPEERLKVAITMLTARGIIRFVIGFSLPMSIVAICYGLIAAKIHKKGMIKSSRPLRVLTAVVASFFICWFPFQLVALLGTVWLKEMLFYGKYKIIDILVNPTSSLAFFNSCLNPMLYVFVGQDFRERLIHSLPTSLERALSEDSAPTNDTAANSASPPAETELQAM
assay_overview: human FPRL1 ligands by binding competition, primary screen, cell-based, FPR counter-screen, flow cytometry (AID 441);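 note: 0% = buffer alone and 100% = receptor blocker peptide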
condition_info: FPRL1-expressing cells, fluorescent ligand binding inhibition, concentration not given here
Out of some 24,000 compounds screened, about 70 (0.3%) were called active. Cut-off read from the data, not from the text of the source: active = inhibition above about 30%; inconclusive = no clear call, values can overlap the other calls; inactive = below that. This is one part of a sample in which actives are shown more often than they occur.
Entry note: the call must match one of 1 (yes) (active), 0 (no) (inactive)

>>> print(df.to_string())
                             compound                                    target  answer_label
0  CC(C)Cc1cc(C(=O)Nc2cc(Br)ccc2O)no1  N-formyl peptide receptor 2 (Homo sapiens) (UniProt P25090)        0 (no)

Req: Test call for this compound, please: CC(=O)Nc1cc(C(=O)O)ccc1S(=O)(=O)c1ccc(Cl)cc1
Resp: 0 (no)

Req: Test call for this compound, please: Cc1ccc(S(=O)(=O)N2C3C=CC(C3)C2C(=O)O)cc1 (centres undefined)
Resp: 0 (no)

Req: Test call for this compound, please: COc1ccc(NC(=O)C2CCCN(S(=O)(=O)c3cccc4cccnc34)C2)cc1 (centres undefined)
Resp: 0 (no)

Req: Test call for this compound, please: O=C(CCN1C(=O)c2ccccc2C1=O)NCCN1CCOCC1
Resp: 0 (no)

Req: Test call for this compound, please: COc1cc(C2C(C(=O)c3ccc(C)o3)=C(O)C(=O)N2Cc2cccnc2)ccc1O (centres undefined)
Resp: 0 (no)

Req: Test call for this compound, please: CCOC(=O)c1cn(CC(=O)Nc2ccc(C(C)C)cc2)nn1
Resp: 0 (no)

Req: Test call for this compound, please: COc1ccc(C2/C(=C(/O)c3ccccc3)C(=O)C(=O)N2c2ncccn2)cc1OC (centres undefined)
Resp: 0 (no)

Req: Test call for this compound, please: COc1ccc(NS(=O)(=O)c2ccc(NC(C)=O)cc2)cc1OC
Resp: 0 (no)

Req: Test call for this compound, please: COc1ccc(-c2ccc(Nc3ccc(S(=O)(=O)N4CCCC4)cc3)nn2)cc1OC
Resp: 0 (no)

Req: Test call for this compound, please: Cc1cc(N2C(=O)C(=O)/C(=C(/O)c3ccccc3)C2c2cccc(Br)c2)no1 (centres undefined)
Resp: 0 (no)

Req: Test call for this compound, please: O=c1c2ccccc2[nH]c(=S)n1CCN1CCC(=C(c2ccc(F)cc2)c2ccc(F)cc2)CC1
Resp: 0 (no)

Req: Test call for this compound, please: CCOC(=O)c1ccc(NC(=O)Cn2nnc(-c3ccc(C)cc3)n2)cc1
Resp: 0 (no)

Req: Test call for this compound, please: Cc1ccc(Nc2cc(=O)n(C3CCCCC3)c(=O)[nH]2)cc1C
Resp: 0 (no)

Req: Test call for this compound, please: Cc1ccc(-c2nc(CS(=O)CC(=O)NC3CCCC3)c(C)o2)cc1 (centres undefined)
Resp: 0 (no)

Req: Test call for this compound, please: COc1ccc(CCNC(=O)c2cc(-c3ccc4c(c3)OCO4)on2)cc1OC
Resp: 0 (no)

Req: Test call for this compound, please: C/C(=C(\C#N)C(=O)NCCCN1CCOCC1)N(C)C
Resp: 0 (no)

Req: Test call for this compound, please: CC(=O)c1c(C)[nH]c(C(=O)NCCCN2CCCC2)c1C
Resp: 0 (no)

Req: Test call for this compound, please: CCN(CC)C(=O)CCC(=O)Nc1ccc(C(=O)OC)cc1
Resp: 0 (no)

Req: Test call for this compound, please: CCCS(=O)(=O)N1CCCC(C(=O)NCCN2CCCCC2C)C1 (centres undefined)
Resp: 0 (no)

Req: Test call for this compound, please: CN1C(=O)c2ccccc2C(C(=O)NCCCN2CCCC2)C1c1c[nH]c2ccccc12 (centres undefined)
Resp: 0 (no)

Req: Test call for this compound, please: COc1cccc(-c2nc3n(n2)C(c2ccccc2Cl)C(C(N)=O)=C(C)N3)c1 (centres undefined)
Resp: 0 (no)

Req: Test call for this compound, please: CCCCN(CC)C(=O)CN(C)S(=O)(=O)c1cccc2nsnc12
Resp: 0 (no)

Req: Test call for this compound, please: CC(=O)N(CC1CCCO1)C1(C(=O)NC2CCCC2)CCCCC1 (centres undefined)
Resp: 0 (no)
